Assay: Intestinal Wash Assay
Assay type: in vitro ADME
Design: dose or concentration left out as unconfirmed
Conditions: rat, rat intestinal wash fluid (small intestine); Table 4-C, t1/2
Bridge positions count the residues as written; N and C are the ends. Square brackets hold non-standard residues; d marks the D form. Peptide text beside a SMILES is read from it. NMeR = CN[C@@H](CCCNC(=N)N)C(=O)O
measurement-kind: half-life (min)
// units = min; emit number, no label

# input half-life for CC(=O)N[C@H]1CSSC[C@@H](C(=O)NCC(=O)N[C@@H](CCC(=O)O)C(N)=O)NC(=O)[C@H](CC(C)C)NC(=O)[C@H]([C@@H](C)O)NC(=O)[C@H](CC(=O)O)NC(=O)[C@H](CO)NC(=O)[C@H](CCCNC(=N)N)N(C)C1=O [compound 198, Ac-C-N-Me-R-S-D-T-L-C-G-E-NH2] (Ac-C[NMeR]SDTLCGE-NH2; disulfide 1-7) ?
# output 30

###

# IC50 values compiled below
Molecular target: rh integrin α4β7 (Homo sapiens, UniProt P13612+P26010)
Construct: purchased R&D Systems 5397-A30
Sequence (P13612 34-977 limits assumed): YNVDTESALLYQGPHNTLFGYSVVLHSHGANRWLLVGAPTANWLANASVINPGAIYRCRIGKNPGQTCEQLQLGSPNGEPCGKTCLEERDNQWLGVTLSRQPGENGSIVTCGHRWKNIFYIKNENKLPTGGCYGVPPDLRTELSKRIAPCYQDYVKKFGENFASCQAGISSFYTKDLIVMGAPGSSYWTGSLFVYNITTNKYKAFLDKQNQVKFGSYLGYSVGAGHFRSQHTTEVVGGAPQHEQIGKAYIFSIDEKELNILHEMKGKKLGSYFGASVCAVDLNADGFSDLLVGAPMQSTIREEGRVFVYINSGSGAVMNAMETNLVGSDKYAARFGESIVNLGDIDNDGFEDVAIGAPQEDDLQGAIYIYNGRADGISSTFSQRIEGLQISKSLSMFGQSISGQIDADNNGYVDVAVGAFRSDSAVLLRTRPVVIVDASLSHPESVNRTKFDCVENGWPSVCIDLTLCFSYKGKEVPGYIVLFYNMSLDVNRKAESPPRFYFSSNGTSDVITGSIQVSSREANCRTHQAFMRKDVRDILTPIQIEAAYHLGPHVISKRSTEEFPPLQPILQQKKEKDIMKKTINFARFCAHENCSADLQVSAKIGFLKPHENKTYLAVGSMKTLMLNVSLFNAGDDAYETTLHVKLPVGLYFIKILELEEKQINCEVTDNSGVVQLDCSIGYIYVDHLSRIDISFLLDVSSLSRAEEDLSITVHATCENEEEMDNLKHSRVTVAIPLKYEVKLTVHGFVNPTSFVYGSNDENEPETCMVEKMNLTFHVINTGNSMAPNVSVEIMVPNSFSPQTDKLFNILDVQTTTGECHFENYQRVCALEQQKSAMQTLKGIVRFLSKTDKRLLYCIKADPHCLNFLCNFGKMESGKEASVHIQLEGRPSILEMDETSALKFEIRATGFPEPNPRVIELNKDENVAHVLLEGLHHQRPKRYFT
Sequence (P26010 20-723 limits assumed): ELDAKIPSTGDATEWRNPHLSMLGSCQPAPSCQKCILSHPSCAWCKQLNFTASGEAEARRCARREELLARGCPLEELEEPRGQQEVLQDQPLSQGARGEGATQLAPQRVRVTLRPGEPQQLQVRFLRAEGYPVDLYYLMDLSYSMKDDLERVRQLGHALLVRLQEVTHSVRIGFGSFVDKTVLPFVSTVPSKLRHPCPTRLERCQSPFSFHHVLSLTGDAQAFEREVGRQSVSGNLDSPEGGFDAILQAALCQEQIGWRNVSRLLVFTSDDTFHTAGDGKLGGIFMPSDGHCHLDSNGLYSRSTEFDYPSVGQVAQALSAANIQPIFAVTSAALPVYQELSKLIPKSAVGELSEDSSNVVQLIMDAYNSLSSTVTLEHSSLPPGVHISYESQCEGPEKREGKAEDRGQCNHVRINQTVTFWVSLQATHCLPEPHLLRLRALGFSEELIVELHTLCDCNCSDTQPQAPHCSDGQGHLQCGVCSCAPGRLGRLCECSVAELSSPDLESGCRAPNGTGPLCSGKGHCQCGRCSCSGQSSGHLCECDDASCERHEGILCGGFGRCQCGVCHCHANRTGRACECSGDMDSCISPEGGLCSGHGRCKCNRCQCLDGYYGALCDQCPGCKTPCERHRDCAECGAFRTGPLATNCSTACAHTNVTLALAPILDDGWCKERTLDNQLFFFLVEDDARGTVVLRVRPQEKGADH
Assay: α4β7-MAdCAM Competition ELISA
Type: binding
Settings: Table 3-B, Potency (α4β7); range classes; read-out: α4β7 ELISA IC50
Procedure: A nickel coated plate (Pierce #15442) was coated with rh integrin α4β7 (R&D Systems #5397-A30) at 800 ng/well and incubated at room temperature with shaking for 1 hr. […] The reaction was stopped with 2N H2SO4 and absorbance was read at 450 nm. TMB is a chromogenic substrate suitable for use in ELISA procedures, which utilize horseradish peroxidase conjugates. This substrate produces a soluble end product that is blue in color and can be read spectrophotometrically at 370 or 655 nm. […]
Bridge positions count the residues as written; N and C are the ends. Square brackets hold non-standard residues; d marks the D form. Peptide text beside a SMILES is read from it. Phe(4-tBu) = CC(C)(C)c1ccc(C[C@H](N)C(=O)O)cc1; Phe(2,4-Cl2) = N[C@@H](Cc1ccc(Cl)cc1Cl)C(=O)O; 2Nal = N[C@@H](Cc1ccc2ccccc2c1)C(=O)O; NMeR = CN[C@@H](CCCNC(=N)N)C(=O)O; β3hE = N[C@@H](CCC(=O)O)CC(=O)O; Pen = CC(C)(S)[C@H](N)C(=O)O; dNMeK = CN[C@H](CCCCN)C(=O)O

Worked set:
{"molecule": "CC(=O)N[C@@H]1C(=O)N(C)[C@@H](CCCNC(=N)N)C(=O)N[C@@H](CO)C(=O)N[C@@H](CC(=O)O)C(=O)N[C@@H]([C@@H](C)O)C(=O)N[C@@H](CC(C)C)C(=O)N[C@H](C(=O)N[C@@H](Cc2ccc(Cl)cc2Cl)C(=O)N[C@@H](CCC(=O)O)C(=O)N[C@H](CCCCN)C(N)=O)C(C)(C)SSC1(C)C [compound 16] (Ac-[Pen][NMeR]SDTL[Pen][Phe(2,4-Cl2)]E[dK]-NH2; disulfide 1-7)", "IC50": "10 to 25 nM"}
{"molecule": "CC(=O)N[C@@H]1C(=O)N(C)[C@@H](CCCNC(=N)N)C(=O)N[C@@H](CO)C(=O)N[C@@H](CC(=O)O)C(=O)N[C@@H]([C@@H](C)O)C(=O)N[C@@H](CC(C)C)C(=O)N[C@H](C(=O)N[C@@H](Cc2ccc3ccccc3c2)C(=O)N[C@@H](CCC(=O)O)C(=O)N(C)[C@H](CCCCN)C(N)=O)C(C)(C)SSC1(C)C [compound 15] (Ac-[Pen][NMeR]SDTL[Pen][2Nal]E[dNMeK]-NH2; disulfide 1-7)", "IC50": "< 10 nM"}

--- query ---
# input IC50 for CC(=O)N[C@@H]1C(=O)N(C)[C@@H](CCCNC(=N)N)C(=O)N[C@@H](CO)C(=O)N[C@@H](CC(=O)O)C(=O)N[C@@H]([C@@H](C)O)C(=O)N[C@@H](CC(C)C)C(=O)N[C@H](C(=O)N[C@@H](Cc2ccc(C(C)(C)C)cc2)C(=O)N[C@@H](CCC(=O)O)CC(=O)O)C(C)(C)SSC1(C)C [compound 152] (Ac-[Pen][NMeR]SDTL[Pen][Phe(4-tBu)][β3hE]-OH; disulfide 1-7) ?
# output < 10 nM

###

# IC50 values compiled below
Biological target: α4β7 (Homo sapiens, UniProt P13612+P26010)
Sequence (P13612 34-1032): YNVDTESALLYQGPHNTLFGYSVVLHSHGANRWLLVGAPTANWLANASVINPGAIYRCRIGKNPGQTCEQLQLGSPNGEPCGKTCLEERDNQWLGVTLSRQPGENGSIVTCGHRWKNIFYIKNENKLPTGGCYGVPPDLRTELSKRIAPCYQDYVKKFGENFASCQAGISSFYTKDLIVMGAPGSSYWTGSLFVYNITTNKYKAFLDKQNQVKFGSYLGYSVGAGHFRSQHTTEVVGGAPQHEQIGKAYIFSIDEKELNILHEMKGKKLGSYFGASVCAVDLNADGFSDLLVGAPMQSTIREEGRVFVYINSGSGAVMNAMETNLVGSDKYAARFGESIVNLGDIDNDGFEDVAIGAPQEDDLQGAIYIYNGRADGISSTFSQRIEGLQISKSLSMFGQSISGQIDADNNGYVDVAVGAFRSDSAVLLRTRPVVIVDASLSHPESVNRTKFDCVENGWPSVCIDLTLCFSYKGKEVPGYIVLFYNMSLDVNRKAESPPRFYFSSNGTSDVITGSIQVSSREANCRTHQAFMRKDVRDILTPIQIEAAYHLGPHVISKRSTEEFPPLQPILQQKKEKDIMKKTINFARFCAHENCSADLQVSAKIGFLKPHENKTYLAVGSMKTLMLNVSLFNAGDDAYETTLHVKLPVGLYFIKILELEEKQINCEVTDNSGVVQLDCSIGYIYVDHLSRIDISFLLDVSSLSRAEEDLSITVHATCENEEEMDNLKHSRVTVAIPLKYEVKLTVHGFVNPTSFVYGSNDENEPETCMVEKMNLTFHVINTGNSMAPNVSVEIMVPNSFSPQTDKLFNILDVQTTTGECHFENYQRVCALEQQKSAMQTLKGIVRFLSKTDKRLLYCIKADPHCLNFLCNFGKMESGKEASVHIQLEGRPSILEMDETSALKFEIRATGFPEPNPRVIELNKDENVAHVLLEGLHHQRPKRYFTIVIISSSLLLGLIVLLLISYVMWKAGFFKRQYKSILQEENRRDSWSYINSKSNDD
Sequence (P26010 20-798): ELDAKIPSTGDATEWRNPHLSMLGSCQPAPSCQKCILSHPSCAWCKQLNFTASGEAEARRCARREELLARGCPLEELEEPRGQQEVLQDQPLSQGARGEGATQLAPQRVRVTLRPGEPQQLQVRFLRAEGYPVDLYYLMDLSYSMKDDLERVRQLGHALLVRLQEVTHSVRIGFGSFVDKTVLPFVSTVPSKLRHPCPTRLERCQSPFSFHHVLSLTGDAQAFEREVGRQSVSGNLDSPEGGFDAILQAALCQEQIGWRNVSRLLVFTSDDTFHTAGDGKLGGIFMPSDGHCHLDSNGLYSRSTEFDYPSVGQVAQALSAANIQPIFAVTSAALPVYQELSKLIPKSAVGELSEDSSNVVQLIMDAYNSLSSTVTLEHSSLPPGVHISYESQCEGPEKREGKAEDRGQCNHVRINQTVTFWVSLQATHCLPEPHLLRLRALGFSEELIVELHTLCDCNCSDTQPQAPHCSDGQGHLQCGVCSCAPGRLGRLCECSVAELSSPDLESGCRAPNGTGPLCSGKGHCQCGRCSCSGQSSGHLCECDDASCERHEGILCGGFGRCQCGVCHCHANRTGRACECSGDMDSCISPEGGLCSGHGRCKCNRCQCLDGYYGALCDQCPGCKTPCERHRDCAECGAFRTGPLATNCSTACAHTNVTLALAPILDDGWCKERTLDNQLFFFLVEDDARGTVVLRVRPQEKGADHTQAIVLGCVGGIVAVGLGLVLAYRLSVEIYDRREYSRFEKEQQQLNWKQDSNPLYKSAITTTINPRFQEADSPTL
Assay: α4β7-MAdCAM Cell Adhesion Assay (RPMI 8866 human cells)
Assay type: cell-based
Design: host or cells: RPMI 8866 human B lymphoblastoid cells
Settings: Table 3-B, Potency (α4β7); range classes; read-out: α4β7 cell (Hu) IC50
Bridge positions count the residues as written; N and C are the ends. Square brackets hold non-standard residues; d marks the D form. Peptide text beside a SMILES is read from it. Phe(4-tBu) = CC(C)(C)c1ccc(C[C@H](N)C(=O)O)cc1; 2Nal = N[C@@H](Cc1ccc2ccccc2c1)C(=O)O; NMeR = CN[C@@H](CCCNC(=N)N)C(=O)O; Tic = O=C(O)[C@@H]1Cc2ccccc2CN1; β3hE = N[C@@H](CCC(=O)O)CC(=O)O; Cha = N[C@@H](CC1CCCCC1)C(=O)O; Pen = CC(C)(S)[C@H](N)C(=O)O

{"molecule": "CC(=O)N[C@@H]1C(=O)N(C)[C@@H](CCCNC(=N)N)C(=O)N[C@@H](CO)C(=O)N[C@@H](CC(=O)O)C(=O)N[C@@H](CC2CCCCC2)C(=O)N[C@@H](CC(C)C)C(=O)N[C@H](C(=O)N[C@@H](Cc2ccc3ccccc3c2)C(=O)N[C@H](CCC(=O)O)C(N)=O)C(C)(C)SSC1(C)C [compound 158] (Ac-[Pen][NMeR]SD[Cha]L[Pen][2Nal][dE]-NH2; disulfide 1-7)", "IC50": "1000 to 10000 nM"}
{"molecule": "CC(=O)N[C@@H]1C(=O)N(C)[C@@H](CCCNC(=N)N)C(=O)N[C@@H](CO)C(=O)N[C@@H](CC(=O)O)C(=O)N[C@@H]([C@@H](C)O)C(=O)N[C@@H](CC(C)C)C(=O)N[C@H](C(=O)N2Cc3ccccc3C[C@H]2C(=O)N[C@@H](CCC(=O)O)CC(N)=O)C(C)(C)SSC1(C)C [compound 154] (Ac-[Pen][NMeR]SDTL[Pen][Tic][β3hE]-NH2; disulfide 1-7)", "IC50": "100 to 500 nM"}
{"molecule": "CC(=O)N[C@@H]1C(=O)N(C)[C@@H](CCCNC(=N)N)C(=O)N[C@@H](CO)C(=O)N[C@@H](CC(=O)O)C(=O)N[C@@H]([C@@H](C)O)C(=O)N[C@@H](CC(C)C)C(=O)N[C@H](C(=O)N[C@@H](Cc2ccc3ccccc3c2)C(=O)N[C@@H](CCC(=O)O)CC(N)=O)C(C)(C)SSC1(C)C [compound 155] (Ac-[Pen][NMeR]SDTL[Pen][2Nal][β3hE]-NH2; disulfide 1-7)", "IC50": "25 to 50 nM"}

# input IC50 for CC(=O)N[C@@H]1C(=O)N(C)[C@@H](CCCNC(=N)N)C(=O)N[C@@H](CO)C(=O)N[C@@H](CC(=O)O)C(=O)N[C@@H]([C@@H](C)O)C(=O)N[C@@H](CC(C)C)C(=O)N[C@H](C(=O)N[C@@H](Cc2ccc3ccccc3c2)C(=O)N[C@@H](CCC(=O)O)C(N)=O)C(C)(C)SSC1(C)C [compound 75] (Ac-[Pen][NMeR]SDTL[Pen][2Nal]E-NH2; disulfide 1-7) ?
# output 50 to 100 nM

# input IC50 for CC(=O)N[C@@H]1C(=O)N(C)[C@@H](CCCNC(=N)N)C(=O)N[C@@H](CO)C(=O)N[C@@H](CC(=O)O)C(=O)N[C@@H]([C@@H](C)O)C(=O)N[C@@H](CC(C)C)C(=O)N[C@H](C(=O)N[C@@H](Cc2ccc(C(C)(C)C)cc2)C(=O)N[C@@H](CCC(=O)O)CC(N)=O)C(C)(C)SSC1(C)C [compound 165] (Ac-[Pen][NMeR]SDTL[Pen][Phe(4-tBu)][β3hE]-NH2; disulfide 1-7) ?
# output 10 to 25 nM

###

Biological target: rh integrin α4β7 (Homo sapiens, UniProt P13612+P26010)
Construct: purchased R&D Systems 5397-A30
Assay: α4β7-MAdCAM Competition ELISA
Type: binding
Details: Table 4-B; read-out: ELISA α4β7 IC50
Bridge positions count the residues as written; N and C are the ends. Square brackets hold non-standard residues; d marks the D form. Peptide text beside a SMILES is read from it. 2Nal = N[C@@H](Cc1ccc2ccccc2c1)C(=O)O; NMeR = CN[C@@H](CCCNC(=N)N)C(=O)O; Pen = CC(C)(S)[C@H](N)C(=O)O
measurement-kind: pIC50
Quick note: pIC50 means taking -log10 of the concentration in moles per liter.

{"compound": "CC(=O)N[C@@H]1C(=O)N(C)[C@@H](CCCNC(=N)N)C(=O)N[C@@H](CO)C(=O)N[C@@H](CC(=O)O)C(=O)N[C@@H]([C@@H](C)O)C(=O)N[C@@H](CC(C)C)C(=O)N[C@H](C(=O)N[C@@H](Cc2ccc3ccccc3c2)C(=O)N[C@@H](CCC(=O)O)C(=O)N[C@H](CCCCN)C(N)=O)C(C)(C)SSC1(C)C [compound 210, Ac-Pen-N-Me-R-S-D-T-L-Pen-2-Nal-E-k-NH2] (Ac-[Pen][NMeR]SDTL[Pen][2Nal]E[dK]-NH2; disulfide 1-7)", "pIC50": 7.96}

# input pIC50 for CC(=O)N[C@@H]1C(=O)N[C@@H](CCCNC(=N)N)C(=O)N[C@@H](CO)C(=O)N[C@@H](CC(=O)O)C(=O)N[C@@H]([C@@H](C)O)C(=O)N[C@@H](CC(C)C)C(=O)N[C@H](C(=O)N[C@H](CCCCN)C(N)=O)CSSC1(C)C [compound 206, Ac-Pen-R-S-D-T-L-C-k-NH2] (Ac-[Pen]RSDTLC[dK]-NH2; disulfide 1-7) ?
# output 7.01
